Provenance of the data: paper PMC6792352

measurementDescription: in vitro
conditionLabel: rat, gh3-tre-luc cells, AC50 (uM) modified / 1000, Tox21_110001=Tox21_200140; viability, 1 nM T3 present, 24 h
endpoint: CC50 at 24 h

# molecule, measValue
data = [
    ("O=C(O)C(Br)CBr (stereo not shown)", "> 90 µM"),
]

---

measurementDescription: GH3-TRE-Via cell viability, CellTiter-Fluor (TOX21_TR_LUC_GH3_Antagonist_viability, aeid 805)
conditionLabel: rat
Listed here: items and their measured AC50 at 24 h.
endpoint: AC50 at 24 h

# compound, endpoint, measValue
rows = [
    ("CC1=C(/C=C/C(C)=C\\C=C\\C(C)=C\\C(=O)O)C(C)(C)CCC1 [9-cis Retinoic acid, reference compound]", "AC50 at 24 h", "> 92 µM"),
    ("CC1=C(/C=C/C(C)=C/C=C/C(C)=C\\C(=O)O)C(C)(C)CCC1 [13-cis Retinoic acid, reference compound]", "AC50 at 24 h", "81.3 µM"),
    ("CC1=C(/C=C/C(C)=C/C=C/C(C)=C/C(=O)O)C(C)(C)CCC1 [all trans-Retinoic acid, reference compound]", "AC50 at 24 h", "66.7 µM"),
    ("Nc1nc(F)nc2c1ncn2[C@@H]1O[C@H](CO)[C@@H](O)[C@@H]1O [Fludarabine, reference compound]", "AC50 at 24 h", "22.3 µM"),
]
